- Tested on: SK-MEL-5 melanoma
- assay.name: NCI-60 one-dose screen, 48 h (100 = growth as untreated, 0 = no growth, -100 = all killed)
- experimental.context: 10 µM unless noted
The panel holds about 83,000 compounds, 20% with a hit somewhere; the sample as a whole holds those more often.
Answer NOT MET if growth is under 20%, and MET if it is 20% or more.

substance_smiles=CCCCCCNC(=O)Oc1ccc(/C(=C(\C)c2ccc(Cl)cc2)c2ccc(OCCN(C)C)cc2)cc1 label_class=MET
substance_smiles=CSc1nccc(-c2c(-c3ccc(F)c(OCc4ccc(F)cc4)c3)nc3sccn23)n1 label_class="NOT MET"
substance_smiles=C=CCn1c(SCC(=O)Nc2cccc(C(=O)/C=C/c3ccccc3Cl)c2)nc2ccccc2c1=O label_class=MET

stdin: Reported growth at or above 20%? COc1cc(/C=N/n2cnc3oc(-c4ccccc4)cc3c2=N)cc(CN2CCCC2)c1O
stdout: MET

stdin: Reported growth at or above 20%? CN(c1ccc(F)cc1)S(=O)(=O)c1ccc(-c2cnc(C3CC3)o2)cc1
stdout: MET

stdin: Reported growth at or above 20%? CCOC(=O)Nc1cccc(-n2cnc3cc(-c4ccc(O)cc4)ccc32)c1
stdout: NOT MET

stdin: Reported growth at or above 20%? O=C(Nc1cccc(-c2nc(-c3ccc(NC(=O)c4cccnc4)cc3Cl)no2)c1)Nc1ccc(NC(=O)C2CC2)c(C(F)(F)F)c1
stdout: NOT MET

stdin: Reported growth at or above 20%? Clc1ccc(-c2csc(N/N=C/c3nc4ccccc4n3C3CC3)n2)cc1
stdout: MET

stdin: Reported growth at or above 20%? CS(=O)(=O)c1nccc(-c2c(-c3ccc(F)c(OCc4ccc(F)cc4)c3)nc3sccn23)n1
stdout: MET
